assay: gradient 5% acetonitrile 3 min, to 50% in 2 min, to 85% in 15 min, held 3 min, 100 µL/min; conditions: column: Zorbax Extend-C18 2.1 x 50 mm; eluents: water / acetonitrile, 0.1% formic acid
METRIC_NAME: RP-LC retention time (s)
One number for each entry, in s.

COMPOUND	RP-LC retention time / s
COCCCNC(=O)CN1c2ccccc2NC2=C(C(=O)CC(C)(C)C2)C1c1ccc(C)cc1 (stereo not drawn)	822

For every item below, please supply its RP-LC retention time.
1. O=C(c1cc(-c2ccco2)on1)N1CCCC1c1ccccc1F (stereo not drawn)
2. CCCC(=O)N1CCCN(C2=NS(=O)(=O)C(c3ccc(F)cc3)=C2C)CC1

[A]
1. 777
2. 780

----------
test: gradient 5% acetonitrile 3 min, to 50% in 2 min, to 85% in 15 min, held 3 min, 100 µL/min; details: column: Zorbax Extend-C18 2.1 x 50 mm; eluents: water / acetonitrile, 0.1% formic acid
Output schema: class label derived from RP-LC retention time. Mapping: label 0: < 700 s; label 1: ≥ 700 s and < 900 s; label 2: ≥ 900 s

Worked set:
MOLECULE	ASSIGNED_CLASS
CCN1C(=O)CCc2cc(NC(=O)Cc3ccc(OC)c(Cl)c3)ccc21	label 1
Cc1ccc(-c2nc3cc(C)ccn3c2Nc2ccccc2C)cc1	label 1
COCCn1c(C)c(C)c(S(=O)(=O)c2ccc(C)cc2)c1NC(=O)C1CCCO1 (stereo not drawn)	label 1

[Q] Place this molecule in its band: CCN(C(=O)C1CCCN1S(=O)(=O)c1cc2c(cc1C)NC(=O)CO2)c1ccc(OC)cc1 (stereo not drawn)
[A] label 1

[Q] Bin? CCCc1ccc(S(=O)(=O)N2CCC(c3noc(-c4cccc(C)c4)n3)CC2)cc1
[A] label 2

[Q] Form: Item = Cc1ccc(S(=O)(=O)NCc2ccccn2)c(C)c1C ; Class = ?
[A] label 0

[Q] Looking at O=[N+]([O-])c1cccc(-c2nnc3c4cnn(-c5ccc(F)cc5)c4ncn23)c1 , which class would you pick?
[A] label 2

[Q] Exercise: read the entry COCCc1noc(C2Cc3ccccc3N2C(=O)Nc2ccc(C)c(C)c2)n1 (stereo not drawn) and state which class it falls under.
[A] label 2

[Q] Which band does O=C(NCCNC(=O)c1ccc(N2CCOCC2)nn1)c1ccc(NC(=O)C2CC2)cc1 fall in?
[A] label 0

[Q] Input O=C1CC(NC(=O)C2(c3ccc(Cl)cc3)CCCC2)CN1 (stereo not drawn) ; output its category
[A] label 0

----------
test: gradient 5% acetonitrile 3 min, to 50% in 2 min, to 85% in 15 min, held 3 min, 100 µL/min; conditions: column: Zorbax Extend-C18 2.1 x 50 mm; eluents: water / acetonitrile, 0.1% formic acid
Provide the recorded RP-LC retention time for the entries that follow.
Numbers only, in s.

The cases that follow already have their RP-LC retention time on record.
MOLECULE	RP-LC retention time / s
Cc1cnc(C2CCOCC2)n1C1CCN(C(=O)NC2CCCCC2)CC1	611
Cc1cnc(C(=O)N[C@@H]2CCC[C@@H]2C(=O)NCC2CCCCC2)cn1	742
CCCC(C)NC(=O)c1cc2c(s1)N(C)CCCC2 (stereo not given)	974
CCCN1C(=O)C(CC(=O)NCCOC)Sc2ncccc21 (stereo not given)	632
Cc1cc(C(=O)Nc2c(F)c(F)c(F)c(F)c2F)n(-c2ccccc2)n1	917

Go through the items and report each one's RP-LC retention time.
1. CCc1nc(-c2csc(S(=O)(=O)N3CCCC(C(=O)Nc4cccc(C#N)c4)C3)c2)no1 (stereo not given)
2. Cc1nc(Cn2cccc2C(=O)Nc2ccc(F)cc2)no1
3. COC(=O)c1c(NCc2ccccc2C)c2cccc(Cl)c2[nH]c1=O
4. Cc1ccc(N2CC(c3nc(-c4ccc5oc(C)nc5c4)no3)CC2=O)cc1 (stereo not given)
5. Cc1cccc(-c2noc(C3CCCN3C(=O)C3CC(=O)N(c4ccc(C)c(C)c4)C3)n2)c1 (stereo not given)
6. CC(=O)N(Cc1nn(C)c2c1CN(Cc1sccc1C)CC2)c1ccccc1
7. CCCN(C)C(=O)c1cn2ccnc(-c3ccc(C)cc3)c2n1

[A]
1010
815
859
903
1030
611
956

For the 5 molecules below, give their RP-LC retention time values.
1. Cc1ccc(S(=O)(=O)N2CCC3(CC2)NCCN=C3NCc2cc(F)cc(F)c2)cc1
2. Cc1nn2c(NC(=O)CSc3nnc4sc5ccccc5n34)csc2nc1=O
3. CC(=O)Nc1ccc(CCc2nc3ccc(C(=O)NCCC4=CCCCC4)cc3[nH]2)cc1
4. C=CCn1ccc2c(OCC(=O)Nc3ccc4c(c3)OCO4)cccc2c1=O
5. Cc1cc(C2CCCN2C(=O)Cc2c(F)cccc2Cl)no1 (stereo not given)

[A]
734
635
669
805
829

Dear colleague, could you please provide RP-LC retention time for the molecules listed below?
1. COc1cccc(C(=O)Nc2nc(-c3ccc(OC)c([N+](=O)[O-])c3)c(C)s2)c1
2. O=C(c1ccccc1Br)N1CCCN(C(=O)C2CC2)c2ccccc21
3. Cc1nn(CCCC(=O)Nc2cccc(F)c2)c(=O)c2nn(-c3ccccc3)c(C)c12
4. COc1ccc(C(=O)N2CCc3cn(C)c4cccc(c34)C2)cc1
5. Cc1cc(C)cc(N2CCC(NC(=O)Nc3cccc(C)c3C)C2=O)c1 (stereo not given)
6. C[C@@H]1O[C@@H](O[C@H]2C(Oc3cc(O)c4c(=O)c(O)c(-c5ccc(O)cc5)oc4c3)O[C@H](CO)[C@@H](O)[C@@H]2O)[C@H](O)[C@H](O)[C@H]1O (stereo not given in full)
7. CNC(=O)c1[nH]c2ccc(F)cc2c1N1CCCC1=O
8. Cc1noc(-c2cccnc2N2CCN(C(c3ccccc3)c3ccccc3)CC2)n1

[A]
1. 1070
2. 746
3. 709
4. 920
5. 922
6. 677
7. 658
8. 742
